Origin of values: patent US20250188079A1

# measured.on: CBP (Homo sapiens (Human), UniProt Q92793)
# Sequence (Q92793 1085-1192): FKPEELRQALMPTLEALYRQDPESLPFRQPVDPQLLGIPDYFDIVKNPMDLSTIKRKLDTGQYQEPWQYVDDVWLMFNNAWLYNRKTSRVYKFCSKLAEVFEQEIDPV
# assay.protocol: HTRF biochemical assay for CBP activity (TR-FRET, bromodomain)
# Assay type: binding
# measurement.context: geometric mean, 10-point 3-fold dilution 33 μM to 1.7 nM, read-out: BROMO IC50 TRF TB CBP (μM gmean)
Field: IC50. Provide a value for each of the compounds that follow.

Examples with answers:
compound	IC50
COC(=O)N1CCc2ccc3c(nc([C@H]4CC[C@H](C(=O)NS(C)(=O)=O)CC4)n3[C@H](C)Cc3ccccc3)c2C1 (single isomer, unassigned)	0.1 to 1 µM
C[C@H](Cc1ccccc1)n1c2ccc3c(c2nc1[C@H]1CC[C@H](C(=O)O)CC1)CN(C(=O)C1CC1)CC3	0.01 to 0.1 µM
COC(=O)N1CCc2ccc3c(nc([C@H]4CC[C@H](C(=O)O)CC4)n3[C@@H](C)Cn3ncc4ccccc43)c2C1	0.001 to 0.01 µM

// each listed compound needs a value for IC50
1. COC(=O)N1CCc2ccc3c(nc(C4CCCCC4)n3CC[C@H]3CC[C@@H](C(=O)O)CC3)c2C1
2. COC(=O)N1CCc2ccc3c(nc([C@H]4CC[C@H](C(=O)O)CC4)n3[C@@H](C)Cn3cc(Cl)cn3)c2C1
3. COC(=O)N1CCc2ccc3c(nc(C4CCCCC4)n3C[C@H]3CC[C@@H](C(=O)O)CC3)c2C1

OUT:
["0.001 to 0.01 µM", "0.001 to 0.01 µM", "0.01 to 0.1 µM"]

IN: For the compound COC(=O)N1CCc2c(C(=O)O)cc3c(nc(N4CCCCC4)n3C[C@H](C)c3ccccc3)c2C1 , what IC50 is on record?
OUT: 0.01 to 0.1 µM
